meta.source: PubChem BioAssay AID1963866

test system: PDC KRAS tumor spheroids with HUVEC/MSC, viability; test: Anticancer human tumor 349418-098-R-PDC patient-derived lung adenocarcinoma cell line growth inhibition [KRAS2]; conditions: second compound 0.316 µM; first compound 1 µM; active = viability on the fitted dose curve at most 10% of control; inactive = the rest
Labels: active, inactive

| COMPOUND | CAT |
| --- | --- |
| COc1cc(Nc2ncc3c(n2)-c2ccc(Cl)cc2C(c2c(F)cccc2OC)=NC3)ccc1C(=O)O + CC1OCC2(CCN(c3cnc(Sc4ccnc(N)c4Cl)c(N)n3)CC2)C1N | inactive |
| CC1COCCN1c1cc(-c2ccnn2C)c2ccnc(-c3ccn[nH]3)c2n1 (stereo not drawn) + C=CC(=O)N1CCN(c2nc(OCC3CCCN3C)nc3c2CCN(c2cccc4cccc(C)c24)C3)CC1CC#N | active |
| CC1(C)CCC(CN2CCN(c3ccc(C(=O)NS(=O)(=O)c4ccc(NCC5CCOCC5)c([N+](=O)[O-])c4)c(Oc4cnc5[nH]ccc5c4)c3)CC2)=C(c2ccc(Cl)cc2)C1 + COc1cc2nc(C)nc(NC(C)c3cc(N)cc(C(F)(F)F)c3)c2cc1OC1CCOC1 | inactive |

* * *

tested on: PDC KRAS tumor spheroids with HUVEC/MSC, viability; assay: Anticancer human tumor 349418-098-R-PDC cell line growth inhibition [KRAS2]; details: second compound 1 µM; first compound 0.001 µM; stronger effect = lower value;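 note: spheroids exposed to compounds for seven days before readout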

| COMPOUND | UNIT_OF_MEASURE | viability, T/C |
| --- | --- | --- |
| CC(=O)Nc1cccc(-n2c(=O)n(C3CC3)c(=O)c3c(Nc4ccc(I)cc4F)n(C)c(=O)c(C)c32)c1 + CC1OCC2(CCN(c3cnc(Sc4ccnc(N)c4Cl)c(N)n3)CC2)C1N | % | 5.3 |
| CN(C)C/C=C/C(=O)Nc1cc2c(Nc3ccc(F)c(Cl)c3)ncnc2cc1O[C@H]1CCOC1 + C=CC(=O)N1CCN(c2nc(OCC3CCCN3C)nc3c2CCN(c2cccc4cccc(C)c24)C3)CC1CC#N | % | 75.2 |
| CC(=O)Nc1cccc(-n2c(=O)n(C3CC3)c(=O)c3c(Nc4ccc(I)cc4F)n(C)c(=O)c(C)c32)c1 + COc1cc2nc(C)nc(NC(C)c3cc(N)cc(C(F)(F)F)c3)c2cc1OC1CCOC1 | % | 7.77 |
| CN(C)C/C=C/C(=O)Nc1cc2c(Nc3ccc(F)c(Cl)c3)ncnc2cc1O[C@H]1CCOC1 + CNCc1ccccc1-c1csc(C(C)Nc2nc(C)nc3cc(OC)c(OC)cc23)c1 | % | 104 |
| CC(=O)Nc1cccc(-n2c(=O)n(C3CC3)c(=O)c3c(Nc4ccc(I)cc4F)n(C)c(=O)c(C)c32)c1 + C=CC(=O)N1CCN(c2nc(OCC3CCCN3C)nc3c2CCN(c2cccc4cccc(C)c24)C3)CC1CC#N | % | 13.3 |

* * *

viability, T/C values, listed per item
system: PDC KRAS tumor spheroids with HUVEC/MSC, viability; experiment: Anticancer human tumor 349418-098-R-PDC cell line growth inhibition [KRAS2]; details: second compound 0.1 µM; first compound 0.0316 µM; stronger effect = lower value;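 note: spheroids exposed to compounds for seven days before readout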

| COMPOUND | UNIT_OF_MEASURE | viability, T/C |
| --- | --- | --- |
| Cn1nccc1Nc1nccc(-c2cc3c(s2)C(C)(C)N(CCN2CCOCC2)C3=O)n1 + COc1cc2nc(C)nc(NC(C)c3cc(N)cc(C(F)(F)F)c3)c2cc1OC1CCOC1 | % | 71.1 |
| CCNC(=O)CC1N=C(c2ccc(Cl)cc2)c2cc(OC)ccc2-n2c(C)nnc21 (stereo unspecified) + CC1OCC2(CCN(c3cnc(Sc4ccnc(N)c4Cl)c(N)n3)CC2)C1N | % | 106 |
| CCN1CCN(Cc2ccc(Nc3ncc(F)c(-c4cc(F)c5nc(C)n(C(C)C)c5c4)n3)nc2)CC1 + COc1cc2nc(C)nc(NC(C)c3cc(N)cc(C(F)(F)F)c3)c2cc1OC1CCOC1 | % | 25.5 |
| CC(C)n1nc(-c2ccc3oc(N)nc3c2)c2c(N)ncnc21 + C=CC(=O)N1CCN(c2nc(OCC3CCCN3C)nc3c2CCN(c2cccc4cccc(C)c24)C3)CC1CC#N | % | 7.73 |
| CCNC(=O)CC1N=C(c2ccc(Cl)cc2)c2cc(OC)ccc2-n2c(C)nnc21 (stereo unspecified) + CNCc1ccccc1-c1csc(C(C)Nc2nc(C)nc3cc(OC)c(OC)cc23)c1 | % | 103 |
| COC(=O)c1ccc2c(C(=Nc3ccc(N(C)C(=O)CN4CCN(C)CC4)cc3)c3ccccc3)c(O)[nH]c2c1 + CC1OCC2(CCN(c3cnc(Sc4ccnc(N)c4Cl)c(N)n3)CC2)C1N | % | 100 |
| Cn1ncnc1[C@H]1c2n[nH]c(=O)c3cc(F)cc(c23)N[C@@H]1c1ccc(F)cc1 + C=CC(=O)N1CCN(c2nc(OCC3CCCN3C)nc3c2CCN(c2cccc4cccc(C)c24)C3)CC1CC#N | % | 74.3 |
| Cn1ncnc1[C@H]1c2n[nH]c(=O)c3cc(F)cc(c23)N[C@@H]1c1ccc(F)cc1 + CNCc1ccccc1-c1csc(C(C)Nc2nc(C)nc3cc(OC)c(OC)cc23)c1 | % | 90.4 |
| CC(C)NCC(C(=O)N1CCN(c2ncnc3c2C(C)CC3O)CC1)c1ccc(Cl)cc1 (stereo unspecified) + CNCc1ccccc1-c1csc(C(C)Nc2nc(C)nc3cc(OC)c(OC)cc23)c1 | % | 95 |
| COc1cc(Nc2ncc3c(n2)-c2ccc(Cl)cc2C(c2c(F)cccc2OC)=NC3)ccc1C(=O)O + C=CC(=O)N1CCN(c2nc(OCC3CCCN3C)nc3c2CCN(c2cccc4cccc(C)c24)C3)CC1CC#N | % | 60.8 |
| Cn1nccc1Nc1nccc(-c2cc3c(s2)C(C)(C)N(CCN2CCOCC2)C3=O)n1 + CNCc1ccccc1-c1csc(C(C)Nc2nc(C)nc3cc(OC)c(OC)cc23)c1 | % | 54.8 |

* * *

test system: PDC KRAS tumor spheroids with HUVEC/MSC, viability; experiment: Anticancer human tumor 349418-098-R-PDC cell line growth inhibition [KRAS2]; conditions: curve of first compound; second compound 0.316 µM;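 note: spheroids exposed to compounds for seven days before readout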
log10 of IC50 values, listed per item
PROPERTY_NAME: log10 of IC50 (log10 of the value in nM)

| COMPOUND | SYSTEM | log10 of IC50 |
| --- | --- | --- |
| CCN1CCN(Cc2ccc(Nc3ncc(F)c(-c4cc(F)c5nc(C)n(C(C)C)c5c4)n3)nc2)CC1 + CC1OCC2(CCN(c3cnc(Sc4ccnc(N)c4Cl)c(N)n3)CC2)C1N | PDC KRAS tumor spheroids with HUVEC/MSC, viability | 0.53 |
| CC(C)n1nc(-c2ccc3oc(N)nc3c2)c2c(N)ncnc21 + CNCc1ccccc1-c1csc(C(C)Nc2nc(C)nc3cc(OC)c(OC)cc23)c1 | PDC KRAS tumor spheroids with HUVEC/MSC, viability | -0.05 |
| O=C(c1cc(Cc2n[nH]c(=O)c3ccccc23)ccc1F)N1CCN(C(=O)C2CC2)CC1 + C=CC(=O)N1CCN(c2nc(=O)n(-c3c(C)ccnc3C(C)C)c3nc(-c4c(O)cccc4F)c(F)cc23)C(C)C1 | PDC KRAS tumor spheroids with HUVEC/MSC, viability | 2.54 |
| CC(C)NCC(C(=O)N1CCN(c2ncnc3c2C(C)CC3O)CC1)c1ccc(Cl)cc1 (stereo not drawn) + CNCc1ccccc1-c1csc(C(C)Nc2nc(C)nc3cc(OC)c(OC)cc23)c1 | PDC KRAS tumor spheroids with HUVEC/MSC, viability | 2.32 |
| CC(C)NCC(C(=O)N1CCN(c2ncnc3c2C(C)CC3O)CC1)c1ccc(Cl)cc1 (stereo not drawn) + C=CC(=O)N1CCN(c2nc(=O)n(-c3c(C)ccnc3C(C)C)c3nc(-c4c(O)cccc4F)c(F)cc23)C(C)C1 | PDC KRAS tumor spheroids with HUVEC/MSC, viability | 2.44 |
| CC1COCCN1c1cc(-c2ccnn2C)c2ccnc(-c3ccn[nH]3)c2n1 (stereo not drawn) + C=CC(=O)N1CCN(c2nc(=O)n(-c3c(C)ccnc3C(C)C)c3nc(-c4c(O)cccc4F)c(F)cc23)C(C)C1 | PDC KRAS tumor spheroids with HUVEC/MSC, viability | 1.42 |
| COC(=O)c1ccc2c(C(=Nc3ccc(N(C)C(=O)CN4CCN(C)CC4)cc3)c3ccccc3)c(O)[nH]c2c1 + COc1cc2nc(C)nc(NC(C)c3cc(N)cc(C(F)(F)F)c3)c2cc1OC1CCOC1 | PDC KRAS tumor spheroids with HUVEC/MSC, viability | 3.02 |
| O=C(c1cc(Cc2n[nH]c(=O)c3ccccc23)ccc1F)N1CCN(C(=O)C2CC2)CC1 + CC1OCC2(CCN(c3cnc(Sc4ccnc(N)c4Cl)c(N)n3)CC2)C1N | PDC KRAS tumor spheroids with HUVEC/MSC, viability | 3.51 |
| O=C(c1cc(Cc2n[nH]c(=O)c3ccccc23)ccc1F)N1CCN(C(=O)C2CC2)CC1 + CNCc1ccccc1-c1csc(C(C)Nc2nc(C)nc3cc(OC)c(OC)cc23)c1 | PDC KRAS tumor spheroids with HUVEC/MSC, viability | 3.46 |
| Cn1nccc1Nc1nccc(-c2cc3c(s2)C(C)(C)N(CCN2CCOCC2)C3=O)n1 + C=CC(=O)N1CCN(c2nc(=O)n(-c3c(C)ccnc3C(C)C)c3nc(-c4c(O)cccc4F)c(F)cc23)C(C)C1 | PDC KRAS tumor spheroids with HUVEC/MSC, viability | 1.81 |
| CCN1CCN(Cc2ccc(Nc3ncc(F)c(-c4cc(F)c5nc(C)n(C(C)C)c5c4)n3)nc2)CC1 + C=CC(=O)N1CCN(c2nc(=O)n(-c3c(C)ccnc3C(C)C)c3nc(-c4c(O)cccc4F)c(F)cc23)C(C)C1 | PDC KRAS tumor spheroids with HUVEC/MSC, viability | 0.88 |
| CC(C)NCC(C(=O)N1CCN(c2ncnc3c2C(C)CC3O)CC1)c1ccc(Cl)cc1 (stereo not drawn) + CC1OCC2(CCN(c3cnc(Sc4ccnc(N)c4Cl)c(N)n3)CC2)C1N | PDC KRAS tumor spheroids with HUVEC/MSC, viability | 2.43 |
| CCN1CCN(Cc2ccc(Nc3ncc(F)c(-c4cc(F)c5nc(C)n(C(C)C)c5c4)n3)nc2)CC1 + C=CC(=O)N1CCN(c2nc(OCC3CCCN3C)nc3c2CCN(c2cccc4cccc(C)c24)C3)CC1CC#N | PDC KRAS tumor spheroids with HUVEC/MSC, viability | 0.78 |
| CC(C)n1nc(-c2ccc3oc(N)nc3c2)c2c(N)ncnc21 + COc1cc2nc(C)nc(NC(C)c3cc(N)cc(C(F)(F)F)c3)c2cc1OC1CCOC1 | PDC KRAS tumor spheroids with HUVEC/MSC, viability | -0.10 |
| COc1cc(Nc2ncc3c(n2)-c2ccc(Cl)cc2C(c2c(F)cccc2OC)=NC3)ccc1C(=O)O + CC1OCC2(CCN(c3cnc(Sc4ccnc(N)c4Cl)c(N)n3)CC2)C1N | PDC KRAS tumor spheroids with HUVEC/MSC, viability | 1.64 |
